Numbers sourced from the supplement of paper PMC10065799.

phosphorylation enrichment by entry:
molecular target: Fes (UniProt P07332); assay: phosphorylation enrichment, bacterial display (enrichment ratio); higher = better substrate or ligand; peptides without Tyr show the background;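 further: 11-residue human phosphosite peptides and single-mutation variants displayed on the E. coli surface, counted by deep sequencing, each peptide's frequency after selection divided by its frequency in the unselected input library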;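 further: frequency after pTyr selection over input frequency; kinase dosed for 20-30% of maximal phosphorylation in three min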
Sequence (P07332 whole entry, looked up): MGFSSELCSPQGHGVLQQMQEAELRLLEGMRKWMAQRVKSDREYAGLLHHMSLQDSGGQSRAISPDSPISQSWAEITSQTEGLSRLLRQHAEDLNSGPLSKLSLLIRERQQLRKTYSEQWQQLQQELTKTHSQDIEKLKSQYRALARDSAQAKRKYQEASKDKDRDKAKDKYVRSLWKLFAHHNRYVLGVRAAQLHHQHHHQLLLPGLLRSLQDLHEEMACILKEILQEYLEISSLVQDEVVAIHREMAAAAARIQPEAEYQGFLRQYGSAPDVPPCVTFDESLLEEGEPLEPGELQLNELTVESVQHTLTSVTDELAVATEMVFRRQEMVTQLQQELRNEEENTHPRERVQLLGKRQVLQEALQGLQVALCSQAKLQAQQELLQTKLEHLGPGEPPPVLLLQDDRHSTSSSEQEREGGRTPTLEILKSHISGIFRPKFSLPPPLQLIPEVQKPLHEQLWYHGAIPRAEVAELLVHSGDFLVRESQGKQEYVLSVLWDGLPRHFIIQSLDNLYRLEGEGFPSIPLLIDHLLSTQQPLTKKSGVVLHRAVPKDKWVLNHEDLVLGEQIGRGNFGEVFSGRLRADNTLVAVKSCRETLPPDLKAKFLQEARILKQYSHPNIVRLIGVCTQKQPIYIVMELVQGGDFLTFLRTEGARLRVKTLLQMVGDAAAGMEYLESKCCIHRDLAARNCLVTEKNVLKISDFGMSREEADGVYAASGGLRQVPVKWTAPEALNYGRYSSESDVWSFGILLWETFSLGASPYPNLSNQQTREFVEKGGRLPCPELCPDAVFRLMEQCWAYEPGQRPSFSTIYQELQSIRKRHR

These solved cases illustrate the format of a correct answer.
GRRGQYVMLSE [TTC7A_Y396] = 0.586
VDGFVYKLHPS [GCK_Y413_S411F] = 0.962
EYLHKYKGFKI [SYNE1_Y6953_Q6951H] = 1.01

stdin: # lookup: phosphorylation enrichment of SRASYYRKGGC [ALK_Y1283_Y1278S]
stdout: 0.5

stdin: # lookup: phosphorylation enrichment of LFLASYCIGGG [UBD_Y161_C160S]
stdout: 1.63

stdin: # lookup: phosphorylation enrichment of LLVVLNKYRCY [PSEN1_Y154_Y154N]
stdout: 1.6

stdin: # lookup: phosphorylation enrichment of LIHTKCPQLLP [AHCY_Y143_Y143C]
stdout: 0.936
